Taken from PubChem BioAssay.

z-score values by entry
measurement.notes: DUSP6 inhibitors restoring Erk phosphorylation by chemical complementation, primary imaging in DUSP6-transfected HeLa (AID 609)
condition.notes: HeLa MKP-3 transfected, phospho-Erk imaging KS statistic; measured here: cell density z-score; at 10 µM; cells stimulated with TPA for 15 min

compound: O=c1[nH]c2sc3c(c2c(=O)n1Cc1ccccc1)CCC3
z-score: 0.896
--
compound: CC1(C(=O)CSc2ncn[nH]2)CCC(=O)O1 (stereo not drawn)
z-score: -1.6
--
compound: Cn1c(=O)c2c(nc(NCc3ccco3)n2Cc2ccc(Cl)cc2Cl)n(C)c1=O
z-score: -0.0402
--
compound: CC(=O)NC(=O)Nc1sc(=S)n(C)c1C
z-score: 0.847
--
compound: CC1(C)CC(=O)C2=C(C1)OC(N)=C(C#N)C2C1C=CCCC1 (stereo not drawn)
z-score: -0.465
--
compound: CC(O)(C#CCN1CCOCC1)c1ccccc1 (stereo not drawn)
z-score: 0.104
--
compound: Cc1cccc(-c2nnc3n2N=C(c2ccc(Br)cc2)CS3)c1
z-score: -0.385
--
compound: CC(NC(=O)NCCCn1ccnc1)(C(F)(F)F)C(F)(F)F
z-score: -0.846
--
compound: COc1cccc(OC)c1C(=O)Nc1nc2ccc(S(C)(=O)=O)cc2s1
z-score: 0.854
--
compound: COC(=O)c1ccccc1NC(=O)C1COc2ccccc2O1 (stereo not drawn)
z-score: 1.14
--
compound: Cc1nc(=O)c(-c2ccccc2)c(C)n1-c1ccc(S(N)(=O)=O)cc1
z-score: 0.3
--
compound: CCN(CC)C(=O)CSc1nc2ccccc2c(=O)n1CC1CCCCC1
z-score: -1.94
--
compound: N#CCSc1nc2c(c(=O)n1Cc1ccco1)C1(CCCC1)Cc1ccccc1-2
z-score: 0.3
--
compound: O=S(=O)(c1ccccc1)N(CC(O)CN1CCCCC1)c1ccccc1 (stereo not drawn)
z-score: -0.887
--
compound: CCCC1Cc2c(sc3nc(SC)nc(N)c23)CO1 (stereo not drawn)
z-score: -0.331
--
compound: Cc1cc(=O)oc(C)c1C(=O)Nc1ccc2nsnc2c1
z-score: 0.355
--
compound: N#Cc1c2c(c(-c3ccccc3)[nH]c1=O)CCCC2
z-score: -0.665
--
compound: CC(C)=CCC(C)(C)CNC(=O)NC1CCCCC1
z-score: -0.346
--
compound: O=C(Oc1cccnc1)c1ccco1
z-score: -1.51
--
compound: CCC(NC(=O)NC1=NCCS1)(C(F)(F)F)C(F)(F)F
z-score: 0.622
--
compound: CC1(C)Cc2c(sc3ncn4nc(-c5ccco5)nc4c23)CO1
z-score: -0.299
--
compound: COc1cc(C2Nc3cccc4cccc(c34)N2)cc(OC)c1OC(C)=O
z-score: 0.65
--
compound: c1ccc(-n2ncc3c(N4CCCC4)ncnc32)cc1
z-score: 0.427
--
compound: c1ccc2c(N3CCCCC3)nc(N3CCCCC3)nc2c1
z-score: -1.53
--
compound: Cc1nc(N2CCN(C(=O)c3ccc(Cl)cc3)CC2)c(C#N)c2c1COC(C)(C)C2
z-score: -0.225
--
compound: CCCc1cc(=O)oc2c(C)c(O)c(CN3CCCCC3)cc12
z-score: -0.426
--
compound: COc1ccc(CC(=O)Nc2cccc(-c3nnc(-c4ccco4)o3)c2)cc1
z-score: -0.286
--
compound: CCCSc1nnc(NC(=O)Nc2ccccc2)s1
z-score: 0.599
--
compound: CCCCSc1nc(N)c(C#N)c(-c2cccs2)c1C#N
z-score: 1.43
--
compound: CC(=O)[C@H]1[C@@H]2C(=O)N(c3cccc(Cl)c3)C(=O)[C@@H]2[C@H]2c3ccccc3C=CN21
z-score: 0.229
--
compound: Cn1c(=O)[nH]c2cc(Cl)cnc21
z-score: 0.823
--
compound: CC1N(O)C(c2ccc(Cl)cc2Cl)N(O)C1(C)C (stereo not drawn)
z-score: -0.283
--
compound: CCCCOC(=O)CSC1=C(C#N)C(c2ccc3c(c2)OCO3)CC(=O)N1 (stereo not drawn)
z-score: 1.99
--
compound: CCc1cc(=O)oc2cc(C)c(CN3CCCCC3)c(O)c12
z-score: -0.916
--
compound: N#Cc1nc(-c2ccc(F)cc2)oc1N1CCCC1
z-score: 1.01
--
compound: CCOC(=O)N1CCN(C2OC(=O)c3ccccc32)CC1 (stereo not drawn)
z-score: -0.546
--
compound: Cc1ccc(-n2ncc3c(NCCCN4CCCC4=O)ncnc32)c(C)c1
z-score: 0.612
--
compound: NC(=O)C1CCN(C2OC(=O)c3ccccc32)CC1 (stereo not drawn)
z-score: 0.349
--
compound: CCOC(=O)Cc1[nH]nc2c1C(c1cc(OC)ccc1OC)C(C#N)=C(N)O2 (stereo not drawn)
z-score: 1.07
--
compound: COc1ccc(C2CC(c3ccccc3)Nc3nc(N)nn32)cc1 (stereo not drawn)
z-score: -1.01
--
compound: CCO/C(C)=N/n1c2nc3ccccc3nc2c2c(=O)n(Cc3ccccc3Cl)c(C)nc21
z-score: -0.0584
--
compound: Cn1c(OCc2cccnc2)nc2c1c(=O)n(Cc1ccc(Br)cc1)c(=O)n2C
z-score: -1.07
--
compound: Nc1nnnn1/N=C/c1cccs1
z-score: -0.3
--
compound: C=CCc1cccc(/C=N/n2cnnc2)c1O
z-score: -0.238
--
compound: CCC(=O)NC1(C(F)(F)F)C(=O)Nc2c1c(=O)[nH]c(=O)n2Cc1ccco1 (stereo not drawn)
z-score: -1.08
--
compound: Cc1cc(=O)oc(C)c1C(=O)NCC(C)C
z-score: -0.875
--
compound: C=C(C)CSc1nnc2n(C)c(=O)c3c4c(sc3n12)CCC4
z-score: 1.02
--
compound: COc1ccc2c(c1)c(C(=O)CN1CCOCC1)c(C)n2C
z-score: -0.409

---

measurement.notes: inhibitors of TNFa-induced NFkB p65 translocation, primary screen, imaging, HUVEC, MLSMR starter and 10KST1 sets (AID 438);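 note: compound added about 3h40 before a 20 min TNFalpha stimulation; signal is the nuclear over cytoplasmic p65 intensity ratio per well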
condition.notes: HUVEC TNFa-induced p65 nuclear translocation; at 2 µM, stronger effect = higher value, 0% TNFa-plus-vehicle, 100% no-TNFa wells
reported.endpoint: inhibition (%)

compound: CCc1c(C(=O)NCCc2ccc(OC)c(OC)c2)[nH]c(C)c1C(C)=O
reported.endpoint: inhibition
measure.unit: %
test.result: 2.4
//
compound: COc1ccc(C(=O)NCCc2nnc(SCc3nc4ccccc4c(=O)[nH]3)n2C)cc1
reported.endpoint: inhibition
measure.unit: %
test.result: -6.6
//
compound: O=C(O)C1[C@H]2C(=O)N(Cc3cccs3)C[C@]23C=C[C@H]1O3 (stereo partly drawn)
reported.endpoint: inhibition
measure.unit: %
test.result: -10.3
//
compound: CCCSc1nnc(NC(=O)Nc2ccccc2)s1
reported.endpoint: inhibition
measure.unit: %
test.result: -20.6
//
compound: O=C(c1ccccc1)c1cc(-c2ccccc2)on1
reported.endpoint: inhibition
measure.unit: %
test.result: -3.4
//
compound: Cc1ccnc(SCCn2c(N3CCN(Cc4ccccc4)CC3)nc3c2c(=O)[nH]c(=O)n3C)n1
reported.endpoint: inhibition
measure.unit: %
test.result: -22.3
//
compound: CCOC(=O)N1CCN(C(=O)c2ccc(CS(=O)(=O)c3c(Cl)cccc3Cl)o2)CC1
reported.endpoint: inhibition
measure.unit: %
test.result: -5
//
compound: Cc1cccc(-c2cc3nc4c(c(N5CCOCC5)n3n2)CCCC4)c1
reported.endpoint: inhibition
measure.unit: %
test.result: -7.5
//
compound: CN(C)c1nc(OCCNC(=O)Nc2ccccc2)nc(N(C)C)n1
reported.endpoint: inhibition
measure.unit: %
test.result: -7.6
//
compound: O=C(Nc1ccccn1)N1CCOCC1
reported.endpoint: inhibition
measure.unit: %
test.result: 9.3
//
compound: O=C1C2ON(c3ccccc3)C(c3cccnc3)C2C(=O)N1Cc1ccccc1 (stereo not drawn)
reported.endpoint: inhibition
measure.unit: %
test.result: -11
//
compound: O=C(CSc1nnc(CNC(=O)c2cccs2)o1)Nc1cccc(C(F)(F)F)c1
reported.endpoint: inhibition
measure.unit: %
test.result: 3.8
//
compound: Cc1ccc2cc(CNC(C)C)c(=O)[nH]c2c1
reported.endpoint: inhibition
measure.unit: %
test.result: -8.4
//
compound: COc1ccccc1C1CC(c2ccc(Cl)cc2)Nc2nc(N)nn21 (stereo not drawn)
reported.endpoint: inhibition
measure.unit: %
test.result: 0
//
compound: O=C(O)COc1ccc(S(=O)(=O)NCCc2ccccc2)cc1
reported.endpoint: inhibition
measure.unit: %
test.result: -0.8
//
compound: Cc1ccc(Cn2nnnc2CN2CCC(O)(c3ccccc3F)CC2)cc1
reported.endpoint: inhibition
measure.unit: %
test.result: 0.2
//
compound: CCC(C)(C)n1nnnc1C(c1ccncc1)N1CCN(c2cccc(OC)c2)CC1 (stereo not drawn)
reported.endpoint: inhibition
measure.unit: %
test.result: 1
//
compound: CC1N(O)C(c2ccc(Cl)cc2Cl)N(O)C1(C)C (stereo not drawn)
reported.endpoint: inhibition
measure.unit: %
test.result: 1.9
//
compound: CCc1nnc(NC(=O)COC(=O)CN2C(=O)c3ccccc3C2=O)s1
reported.endpoint: inhibition
measure.unit: %
test.result: 4.7
//
compound: O=c1oc2ccccc2c(O)c1C=NCc1ccccn1
reported.endpoint: inhibition
measure.unit: %
test.result: 7.6
//
compound: CC1(C)Cc2ccccc2-c2c1c(=O)n(-c1ccccc1)c1nnnn21
reported.endpoint: inhibition
measure.unit: %
test.result: 8.6
//
compound: O=C(c1cccc(F)c1)N1CCc2ccccc21
reported.endpoint: inhibition
measure.unit: %
test.result: 3.5
//
compound: COc1ccc(-c2nc3n(n2)C(=O)CC(c2ccco2)S3)cc1 (stereo not drawn)
reported.endpoint: inhibition
measure.unit: %
test.result: -10.3
